These data points were gathered from ChEMBL document CHEMBL4334512.

TEST PROTOCOL: Clearance in dog at 1 mg/kg, iv
Assay type: ADME, organism-based, Canis lupus familiaris
CONDITION LABEL: in vivo
READOUT TYPE: clearance (mL/min/kg)

O=C(N1CC[C@@]2(S(=O)(=O)c3ccc(F)cc3)c3ccc(C(F)(C(F)(F)F)C(F)(F)F)cc3CC[C@@H]12)C1(O)CCS(=O)(=O)CC1
0.35

* * *

TEST PROTOCOL: Cmax in dog at 1 mg/kg, po
Assay type: ADME, organism-based, Canis lupus familiaris
Set-up: dose 1 mg/kg, route oral
CONDITION LABEL: in vivo
READOUT TYPE: Cmax

O=C(N1CC[C@@]2(S(=O)(=O)c3ccc(F)cc3)c3ccc(C(F)(C(F)(F)F)C(F)(F)F)cc3CC[C@@H]12)C1(O)CCS(=O)(=O)CC1
700 nM

* * *

TEST PROTOCOL: Cmax in Balb/c mouse at 10 mg/kg, po
Format: ADME, organism-based
Parameters: dose 10 mg/kg, route oral
CONDITION LABEL: in vivo
# Cmax per entry
READOUT TYPE: Cmax

O=C(N1CC[C@@]2(S(=O)(=O)c3ccc(F)cc3)c3ccc(C(F)(C(F)(F)F)C(F)(F)F)cc3CC[C@@H]12)C1(O)CCS(=O)(=O)CC1
2900 nM
CCN1C[C@H]2N(C(=O)[C@H]3CC[C@H](C(=O)O)CC3)CC[C@@]2(S(=O)(=O)c2ccc(F)cc2)c2ccc(C(F)(C(F)(F)F)C(F)(F)F)cc21
13000 nM
O=C(O)[C@H]1CC[C@](O)(C(=O)N2CC[C@@]3(S(=O)(=O)c4ccc(F)cc4)c4ccc(C(F)(C(F)(F)F)C(F)(F)F)cc4CC[C@@H]23)CC1
2500 nM

* * *

TEST PROTOCOL: Half life in mouse liver microsomes
Type: ADME, Microsome
# half-life per entry
READOUT TYPE: half-life

O=C(O)[C@H]1CC[C@](F)(C(=O)N2CC[C@@]3(S(=O)(=O)c4ccc(F)cc4)c4ccc(C(F)(C(F)(F)F)C(F)(F)F)cc4CC[C@@H]23)CC1
> 2 h
O=C(C1CCS(=O)(=O)CC1)N1CC[C@@]2(S(=O)(=O)c3ccc(F)cc3)c3ccc(C(F)(C(F)(F)F)C(F)(F)F)cc3CC[C@@H]12
> 2 h
C[C@]1(C(=O)N2CC[C@@]3(S(=O)(=O)c4ccc(F)cc4)c4ccc(C(F)(C(F)(F)F)C(F)(F)F)cc4CC[C@@H]23)CC[C@H](C(=O)O)CC1
1.4 h
CC(=O)N1CCC(C(=O)N2CC[C@@]3(S(=O)(=O)c4ccc(F)cc4)c4ccc(C(F)(C(F)(F)F)C(F)(F)F)cc4CC[C@@H]23)CC1
0.85 h

* * *

TEST PROTOCOL: Clearance in rat at 2 mg/kg, iv
Format: ADME, organism-based
CONDITION LABEL: in vivo
READOUT TYPE: clearance (L/h/kg)

O=C(N1CC[C@@]2(S(=O)(=O)c3ccc(F)cc3)c3ccc(C(F)(C(F)(F)F)C(F)(F)F)cc3CC[C@@H]12)C1(O)CCS(=O)(=O)CC1
0.222

* * *

TARGET SYSTEM: UniProtKB P11712
Sequence (P11712 whole entry): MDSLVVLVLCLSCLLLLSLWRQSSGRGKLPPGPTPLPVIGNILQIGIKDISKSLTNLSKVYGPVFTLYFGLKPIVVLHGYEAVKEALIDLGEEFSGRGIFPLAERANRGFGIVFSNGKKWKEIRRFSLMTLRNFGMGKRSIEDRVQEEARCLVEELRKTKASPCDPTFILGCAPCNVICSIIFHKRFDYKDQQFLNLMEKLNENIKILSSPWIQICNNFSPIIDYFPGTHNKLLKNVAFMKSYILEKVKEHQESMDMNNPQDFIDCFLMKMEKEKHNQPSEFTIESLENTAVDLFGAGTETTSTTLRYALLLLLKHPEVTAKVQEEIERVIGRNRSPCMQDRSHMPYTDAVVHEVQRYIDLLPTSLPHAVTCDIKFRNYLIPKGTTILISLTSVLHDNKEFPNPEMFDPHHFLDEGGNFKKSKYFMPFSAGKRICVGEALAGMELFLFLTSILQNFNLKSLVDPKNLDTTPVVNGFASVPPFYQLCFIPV
TEST PROTOCOL: Inhibition of recombinant CYP2C9 (unknown origin)
pIC50: −log10 of the molar value.
READOUT TYPE: pIC50

O=C(N1CC[C@@]2(S(=O)(=O)c3ccc(F)cc3)c3ccc(C(F)(C(F)(F)F)C(F)(F)F)cc3CC[C@@H]12)C1(O)CCS(=O)(=O)CC1
5.00

* * *

TEST PROTOCOL: Half life in human liver microsomes
Assay type: ADME, Microsome
READOUT TYPE: half-life

O=C(N1CC[C@@]2(S(=O)(=O)c3ccc(F)cc3)c3ccc(C(F)(C(F)(F)F)C(F)(F)F)cc3OC[C@@H]12)C1(O)CCS(=O)(=O)CC1
> 2 h
O=C(N1CC[C@@]2(S(=O)(=O)c3ccc(F)cc3)c3ccc(C(F)(C(F)(F)F)C(F)(F)F)cc3CC[C@@H]12)C1(O)CCS(=O)(=O)CC1
> 2 h
O=C(O)[C@H]1CC[C@H](C(=O)N2CC[C@@]3(S(=O)(=O)c4ccc(Cl)cc4)c4ccc(C(F)(C(F)(F)F)C(F)(F)F)cc4CC[C@@H]23)CC1
> 2 h
C[C@]1(C(=O)O)CC[C@H](C(=O)N2CC[C@@]3(S(=O)(=O)c4ccc(F)cc4)c4ccc(C(F)(C(F)(F)F)C(F)(F)F)cc4CC[C@@H]23)CC1
> 2 h

* * *

TEST PROTOCOL: Volume of distribution at steady state in mouse at 2 mg/kg, iv
Format: ADME, organism-based
CONDITION LABEL: in vivo, read-out: Vdss
READOUT TYPE: Vd

O=C(N1CC[C@@]2(S(=O)(=O)c3ccc(F)cc3)c3ccc(C(F)(C(F)(F)F)C(F)(F)F)cc3CC[C@@H]12)C1(O)CCS(=O)(=O)CC1
2.7 L/kg

* * *

TEST PROTOCOL: Unbound fraction in rat serum
Assay type: ADME, cell-free
READOUT TYPE: fraction unbound

O=C(N1CC[C@@]2(S(=O)(=O)c3ccc(F)cc3)c3ccc(C(F)(C(F)(F)F)C(F)(F)F)cc3CC[C@@H]12)C1(O)CCS(=O)(=O)CC1
0.011

* * *

TEST PROTOCOL: Oral bioavailability in mouse at 4 mg/kg
Type: ADME, organism-based
CONDITION LABEL: in vivo
READOUT TYPE: bioavailability (%)

O=C(N1CC[C@@]2(S(=O)(=O)c3ccc(F)cc3)c3ccc(C(F)(C(F)(F)F)C(F)(F)F)cc3CC[C@@H]12)C1(O)CCS(=O)(=O)CC1
100

* * *

TARGET SYSTEM: UniProt:P51450
Sequence (P51450 whole entry): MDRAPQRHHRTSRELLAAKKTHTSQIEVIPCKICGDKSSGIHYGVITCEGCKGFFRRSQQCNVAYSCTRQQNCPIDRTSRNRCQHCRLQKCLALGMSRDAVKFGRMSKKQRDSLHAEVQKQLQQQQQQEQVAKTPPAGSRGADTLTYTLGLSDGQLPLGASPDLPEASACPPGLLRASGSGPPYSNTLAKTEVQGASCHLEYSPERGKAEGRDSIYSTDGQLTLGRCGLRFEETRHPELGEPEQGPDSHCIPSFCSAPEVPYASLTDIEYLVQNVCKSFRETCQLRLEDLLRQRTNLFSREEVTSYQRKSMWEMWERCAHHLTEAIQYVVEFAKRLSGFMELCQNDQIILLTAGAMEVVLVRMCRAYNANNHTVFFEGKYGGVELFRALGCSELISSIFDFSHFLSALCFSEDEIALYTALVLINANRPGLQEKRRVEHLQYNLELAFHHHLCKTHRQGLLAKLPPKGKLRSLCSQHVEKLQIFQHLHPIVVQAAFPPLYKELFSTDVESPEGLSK
TEST PROTOCOL: Inverse agonist activity at RORgammat in CD3/CD28/IL-1/IL-23-stimulated C57/B6 mouse whole blood assessed as reduction in IL17A production incubated for 1 hr before stimulation with CD3/CD28/IL-1/IL-23 for 24 hrs by AlphaLISA method
Format: tissue-based
READOUT TYPE: EC50

O=C(N1CC[C@@]2(S(=O)(=O)c3ccc(F)cc3)c3ccc(C(F)(C(F)(F)F)C(F)(F)F)cc3CC[C@@H]12)C1(O)CCS(=O)(=O)CC1
0.44 µM

* * *

TEST PROTOCOL: Total AUC in rat at 4 mg/kg, po
Format: ADME, organism-based
Design: dose 4 mg/kg, route oral, time AUCmax
CONDITION LABEL: in vivo
READOUT TYPE: AUC (µM·h)

O=C(N1CC[C@@]2(S(=O)(=O)c3ccc(F)cc3)c3ccc(C(F)(C(F)(F)F)C(F)(F)F)cc3CC[C@@H]12)C1(O)CCS(=O)(=O)CC1
17

* * *

TEST PROTOCOL: Total AUC in dog at 1 mg/kg, po
Assay type: ADME, organism-based, Canis lupus familiaris
Set-up: dose 1 mg/kg, route oral, time AUCmax
CONDITION LABEL: in vivo
READOUT TYPE: AUC

O=C(N1CC[C@@]2(S(=O)(=O)c3ccc(F)cc3)c3ccc(C(F)(C(F)(F)F)C(F)(F)F)cc3CC[C@@H]12)C1(O)CCS(=O)(=O)CC1
78 µM·h

* * *

TEST PROTOCOL: Volume of distribution at steady state in dog at 1 mg/kg, iv
Assay type: ADME, organism-based, Canis lupus familiaris
CONDITION LABEL: in vivo, read-out: Vdss
READOUT TYPE: Vd (L/kg)

O=C(N1CC[C@@]2(S(=O)(=O)c3ccc(F)cc3)c3ccc(C(F)(C(F)(F)F)C(F)(F)F)cc3CC[C@@H]12)C1(O)CCS(=O)(=O)CC1
2.6

* * *

TEST PROTOCOL: Half life in human liver microsomes
Type: ADME, Microsome
READOUT TYPE: half-life

CN1C[C@H]2N(C(=O)C3(O)CCS(=O)(=O)CC3)CC[C@@]2(S(=O)(=O)c2ccc(F)cc2)c2ccc(C(F)(C(F)(F)F)C(F)(F)F)cc21
> 2 h
O=C(O)[C@H]1CC[C@](F)(C(=O)N2CC[C@@]3(S(=O)(=O)c4ccc(F)cc4)c4ccc(C(F)(C(F)(F)F)C(F)(F)F)cc4CC[C@@H]23)CC1
> 2 h
O=C(O)[C@H]1CC[C@H](C(=O)N2CC[C@@]3(S(=O)(=O)c4ccc(F)cc4)c4ccc(C(F)(C(F)(F)F)C(F)(F)F)cc4CC[C@@H]23)CC1
> 2 h
O=C(O)[C@H]1CC[C@H](C(=O)N2CC[C@@]3(S(=O)(=O)c4cccc(Cl)c4)c4ccc(C(F)(C(F)(F)F)C(F)(F)F)cc4CC[C@@H]23)CC1
> 2 h
O=C(O)C12CCC(C(=O)N3CC[C@@]4(S(=O)(=O)c5ccc(F)cc5)c5ccc(C(F)(C(F)(F)F)C(F)(F)F)cc5CC[C@@H]34)(CC1)CC2
> 2 h
CCN1C[C@H]2N(C(=O)[C@H]3CC[C@H](C(=O)O)CC3)CC[C@@]2(S(=O)(=O)c2ccc(F)cc2)c2ccc(C(F)(C(F)(F)F)C(F)(F)F)cc21
> 2 h
C[C@]1(C(=O)N2CC[C@@]3(S(=O)(=O)c4ccc(F)cc4)c4ccc(C(F)(C(F)(F)F)C(F)(F)F)cc4CC[C@@H]23)CC[C@H](C(=O)O)CC1
1.82 h
O=C(O)[C@H]1CC[C@H](C(=O)N2CC[C@@]3(S(=O)(=O)c4ccc(F)cc4)c4ccc(C(F)(C(F)(F)F)C(F)(F)F)cc4OC[C@@H]23)CC1
> 2 h
O=C(O)[C@H]1CC[C@](O)(C(=O)N2CC[C@@]3(S(=O)(=O)c4ccc(F)cc4)c4ccc(C(F)(C(F)(F)F)C(F)(F)F)cc4CC[C@@H]23)CC1
1.65 h
O=C(O)[C@H]1CC[C@H](C(=O)N2CC[C@@]3(S(=O)(=O)c4ccc(F)cc4)c4ccc(C(F)(C(F)(F)F)C(F)(F)F)cc4NC[C@@H]23)CC1
> 2 h
O=C(O)[C@H]1CC[C@H](C(=O)N2CC[C@@]3(S(=O)(=O)c4cccc(F)c4)c4ccc(C(F)(C(F)(F)F)C(F)(F)F)cc4CC[C@@H]23)CC1
1.83 h
O=C(C1CCS(=O)(=O)CC1)N1CC[C@@]2(S(=O)(=O)c3ccc(F)cc3)c3ccc(C(F)(C(F)(F)F)C(F)(F)F)cc3CC[C@@H]12
> 2 h
